tested on: Frankliniella occidentalis; experiment: Insecticidal activity against Frankliniella occidentalis FOR (western flower thrips); format: functional, organism-based; details: Frankliniella occidentalis, FOR
quantityKind: pIC50
For clarity, pIC50 is expressed as the negative log10 of concentration in mol/L.

Hi! What's the reported pIC50 for CNC(=O)Oc1cc(C)c(SC)c(C)c1 [METHIOCARB] on Frankliniella occidentalis?
5.53

----------
experiment: Inhibition of Frankliniella occidentalis MLFOM (western flower thrips) total esterase activity
quantityKind: pIC50
For clarity, pIC50 is expressed as the negative log10 of concentration in mol/L.

Consider the reported pIC50 for these molecules:
> print(dat)
                                   molecule  quantitykind  obsvalue
1   CNC(=O)Oc1cc(C)c(SC)c(C)c1 [METHIOCARB]         pIC50      5.72
2  CCCCOCCOCCOCc1cc2c(cc1CCC)OCO2 [PIPERONYL BUTOXIDE]         pIC50      2.62

What does the record list as pIC50 for CCCCSP(=O)(SCCCC)SCCCC [S,S,S,-TRIBUTYLPHOSPHOROTRITHIOATE] ?
6.34
